Hey, just so you know, these numbers are from patent US9447038B2.

target: UniProt P49682; assay: 125I-CXCL10 competition radioligand binding assay; details: displacement of 125I-CXCL10 from membranes of CHO cells expressing human recombinant CXCR3-A;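 further: One-hour incubation of membranes with tracer, bound radioligand separated by glass fibre filtration, IC50 derived from four-parameter nonlinear fit of competition curves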
Sequence (P49682 whole entry): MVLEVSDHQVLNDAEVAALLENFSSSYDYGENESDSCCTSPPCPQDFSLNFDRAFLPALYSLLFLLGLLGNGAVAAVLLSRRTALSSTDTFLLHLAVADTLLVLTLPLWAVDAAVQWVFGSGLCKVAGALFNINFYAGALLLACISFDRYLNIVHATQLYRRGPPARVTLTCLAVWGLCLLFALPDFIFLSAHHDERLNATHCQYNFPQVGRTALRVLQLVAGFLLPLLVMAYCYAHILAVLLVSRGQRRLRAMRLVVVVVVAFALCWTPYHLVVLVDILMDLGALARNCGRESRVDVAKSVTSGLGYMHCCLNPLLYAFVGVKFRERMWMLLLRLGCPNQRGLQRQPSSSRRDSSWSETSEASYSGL
Result type: IC50 (nM)

- Compound: "COc1cc(CN(CC2CC2)C(c2ccc(Cl)cc2)C(C)C(=O)O)ccc1OCCN1C(=O)CCC1=O (stereo not shown)"
  Unit string: "nM"
  Assay value: 71
- Compound: "CCCN(Cc1ccc(OCCN2C(=O)CCC2=O)c(Cl)c1)C(CC(=O)O)c1ccc(Cl)cc1 (stereo not shown)"
  Unit string: "nM"
  Assay value: 170
- Compound: "COc1cc(CN(CC2CCCCC2)C(CC(=O)O)c2ccc(Cl)c(Cl)c2)ccc1OCCN1C(=O)CCC1=O (stereo not shown)"
  Unit string: "nM"
  Assay value: 98
- Compound: "Cc1cc(CN(CC2CC2)C(CC(=O)O)c2ccc3c(c2)CCO3)ccc1OCCn1c(=O)ccn(C)c1=O (stereo not shown)"
  Unit string: "nM"
  Assay value: 42
